# credit: patent US20260226037A1

System: RPMI-LR5 cells
Assay: XTT cytotoxicity, RPMI-LR5
Assay type: cell-based
Conditions: RPMI-LR5, multiple myeloma, melphalan resistant; read-out: IC50
Reported IC50 by item:
Give your result in nM as a bare value.

Example entries and their recorded answers appear below.
> print(dat)
                                   molecule  value.measured
1  Cc1c(C(=O)OCCCCO)[nH]c2c1C(=O)CC(c1ncco1)C2 (stereo not shown)            1130
2  CCCCCOC(=O)c1[nH]c2c(c1C)C(O)CC(c1ncco1)C2 (stereo not shown)             427
3  CCCCCOC(=O)c1[nH]c2c(c1C)C(=O)CC(c1nccs1)C2 (stereo not shown)              60

Please fill in: IC50 reported for Cc1c(C(=O)OCCCCO)oc2c1C(=O)CC(c1ncco1)C2 (stereo not shown) = 958

====

System: MCF7 cells
Assay: XTT cytotoxicity, MCF7
Format: cell-based
Details: MCF7, breast adenocarcinoma, non-resistant
QUANTITY NAME: pIC50
Answer as the number alone; pIC50 is minus log10 of concentration in mol/L.

Note to self: pIC50 of Cc1c(C(=O)OCCCCN)[nH]c2c1C(=O)CC(c1ncco1)C2.Cl.Cl (stereo not shown) with MCF7 cells was 5.23

====

System: MM1.R cells
Assay: XTT cytotoxicity, MM1.R
Type: cell-based
Settings: MM1.R / MM1.S
Readings of IC50 ratio between resistant and non-resistant cells for the listed molecules

Example entries begin here.
MOLECULE	VALUE MEASURED
Cc1c(C(=O)OCCCCN)oc2c1C(=O)CC(c1ncco1)C2.Cl (centres unmarked) [SMS228]	>0.406
Cc1c(C(=O)OCCCCO)[nH]c2c1C(=O)CC(c1ncco1)C2 (centres unmarked) [SMS096]	1.447
Cc1c(C(=O)OC2CCCC2)[nH]c2c1C(=O)CC(c1ncco1)C2 (centres unmarked) [SMS101]	3.953
CCCCCOC(=O)c1[nH]c2c(c1C)C(O)CC(c1ncco1)C2 (centres unmarked) [SMS108]	1.633
CC[C@]1(O)C[C@H]2CN(CCc3c([nH]c4ccccc34)[C@@](C(=O)OC)(c3cc4c(cc3OC)N(C=O)[C@H]3[C@@](O)(C(=O)OC)[C@H](OC(C)=O)[C@]5(CC)C=CCN6CC[C@]43[C@@H]65)C2)C1 [Vincristine, reference compound]	1.063

Value of measured IC50 ratio between resistant and non-resistant cells for the entry Cc1c(C(=O)OCCCCO)oc2c1C(=O)CC(c1ncco1)C2 (centres unmarked) [SMS229] : >0.779

Recorded IC50 ratio between resistant and non-resistant cells (molecule CCCCCOC(=O)c1[nH]c2c(c1C)C(=O)CC(c1nccs1)C2 (centres unmarked) [SMS213] ): 1.185

Item: Cc1c(C(=O)OCCCCN)[nH]c2c1C(=O)CC(c1ncco1)C2.Cl.Cl (centres unmarked) [SMS088] | IC50 ratio between resistant and non-resistant cells: 0.934

====

System: MCF7 cells
Test: XTT cytotoxicity, MCF7
Assay type: cell-based
Details: Homo sapiens; MCF7, breast adenocarcinoma, non-resistant
Method: The cytotoxic activity of the novel family was evaluated against various tumor cells, including myeloma cells, acute lymphoblastic leukemia cells, acute monocytic leukemia cells, chronic myelogenous leukemia cells, pancreatic cancer cells, breast cancer cells, uterine sarcoma cells, cervix adenocarcinoma cells, ovary cancer cells, melanoma cells, osteosarcoma cells, prostate cancer cells, lung cancer cells, neuroblastoma cells and colorectal adenocarcinoma cells by XTT assay.
Consider the following partition of reported IC50 into named classes: bucket 1 (below 200 nM), bucket 2 (200 nM to below 8000 nM), bucket 3 (8000 nM or more)

COMPOUND	TARGET SYSTEM	LABEL CLASS
CCCCCOC(=O)c1[nH]c2c(c1C)C(=O)CC(c1nccs1)C2 (centres unmarked)	MCF7 cells	bucket 2

[ask] # bin label for Cc1c(C(=O)OCCCCO)oc2c1C(=O)CC(c1ncco1)C2 (centres unmarked)
[reply] bucket 3

[ask] For the record `CCC1=C[C@@H]2CN(C1)Cc1c([nH]c3ccccc13)[C@@](C(=O)OC)(c1cc3c(cc1OC)N(C)[C@H]1[C@@](O)(C(=O)OC)[C@H](OC(C)=O)[C@]4(CC)C=CCN5CC[C@]31[C@@H]54)C2` , report the class its IC50 corresponds to.
[reply] bucket 1

[ask] Pick a category. Item: CCCCCOC(=O)c1[nH]c2c(c1C)C(=O)CC(c1ccco1)C2 (centres unmarked) [SMS001, reference compound]
[reply] bucket 2

[ask] Classify this compound: Cc1c(C(=O)OC2CCCC2)[nH]c2c1C(=O)CC(c1ncco1)C2 (centres unmarked)
[reply] bucket 3

[ask] Please report the category associated with CCCCCOC(=O)c1[nH]c2c(c1C)C(=O)CC(c1ncco1)C2 (centres unmarked) , nothing else.
[reply] bucket 2

[ask] Exercise: read the entry CC[C@]1(O)C[C@H]2CN(CCc3c([nH]c4ccccc34)[C@@](C(=O)OC)(c3cc4c(cc3OC)N(C=O)[C@H]3[C@@](O)(C(=O)OC)[C@H](OC(C)=O)[C@]5(CC)C=CCN6CC[C@]43[C@@H]65)C2)C1 [Vincristine, reference compound] and state which class it falls under.
[reply] bucket 1

[ask] Pick a category. Item: Cc1c(C(=O)OCCCCN)oc2c1C(=O)CC(c1ncco1)C2.Cl (centres unmarked)
[reply] bucket 3

[ask] // bin(item) where item = CCCCCOC(=O)c1[nH]c2c(c1C)C(O)CC(c1ncco1)C2 (centres unmarked)
[reply] bucket 2

[ask] Pick a category. Item: `CC(=O)O[C@H]1C(=O)[C@@]2(C)[C@H]([C@H](OC(=O)c3ccccc3)[C@]3(O)C[C@H](OC(=O)[C@H](O)[C@@H](NC(=O)c4ccccc4)c4ccccc4)C(C)=C1C3(C)C)[C@]1(OC(C)=O)CO[C@@H]1C[C@@H]2O`
[reply] bucket 1

====

Test system: NALM6 cells
Assay: XTT cytotoxicity, NALM6
Type: cell-based
Settings: Homo sapiens, NALM-6; NALM6, acute lymphoblastic leukemia, non-resistant; read-out: IC50
Please note: IC50 exactly at 50 nM is Criterion not met. Only values below 50 nM get Criterion met.

Below are worked cases with known answers.
COMPOUND	TARGET SYSTEM	LABEL CLASS
CCCCCOC(=O)c1[nH]c2c(c1C)C(=O)CC(c1ccco1)C2 (stereo not drawn) [SMS001, reference compound]	NALM6 cells	Criterion met
CC[C@]1(O)C[C@H]2CN(CCc3c([nH]c4ccccc34)[C@@](C(=O)OC)(c3cc4c(cc3OC)N(C=O)[C@H]3[C@@](O)(C(=O)OC)[C@H](OC(C)=O)[C@]5(CC)C=CCN6CC[C@]43[C@@H]65)C2)C1 [Vincristine, reference compound]	NALM6 cells	Criterion met
CCCCCOC(=O)c1[nH]c2c(c1C)C(=O)CN(c1ccccc1)C2 [SMS078]	NALM6 cells	Criterion not met
CCCCCOC(=O)c1[nH]c2c(c1C)C(O)CC(c1ncco1)C2 (stereo not drawn) [SMS108]	NALM6 cells	Criterion not met
Cc1c(C(=O)OCCCCO)oc2c1C(=O)CC(c1ncco1)C2 (stereo not drawn) [SMS229]	NALM6 cells	Criterion not met

[ask] Field: below-cutoff. Rule: recorded IC50 strictly less than 50 nM. Subject: CCCOC(=O)c1[nH]c2c(c1C)C(=O)CN(c1ncco1)C2 [SMS294]
[reply] Criterion not met

[ask] Input Cc1c(C(=O)OC2CCCC2)[nH]c2c1C(=O)CC(c1ncco1)C2 (stereo not drawn) [SMS101] ; condition: IC50 strictly below 50 nM. Does it hold?
[reply] Criterion met

[ask] Hello, I'm reviewing records and need to know if IC50 of CCCCCOC(=O)c1[nH]c2c(c1C)C(=O)CC(c1ncco1)C2 (stereo not drawn) [SMS077] is below 50 nM. Could you check?
[reply] Criterion met

[ask] Hi there! Is IC50 for CCCCCOC(=O)c1[nH]c2c(c1C)C(=O)CC(c1nccs1)C2 (stereo not drawn) [SMS213] below 50 nM, do you know?
[reply] Criterion not met

====

Test system: A2780 cells
Test: XTT cytotoxicity, A2780
Type: cell-based
Conditions: Homo sapiens; A2780, ovarian carcinoma, non-resistant
Listing: IC50 of selected compounds
Just the number please, in nM, no unit attached.

Study these solved cases before continuing.
COMPOUND	TARGET SYSTEM	IC50 / nM
CCCCCOC(=O)c1[nH]c2c(c1C)C(=O)CC(c1ncco1)C2 (stereo not shown)	A2780 cells	16
CCC1=C[C@@H]2CN(C1)Cc1c([nH]c3ccccc13)[C@@](C(=O)OC)(c1cc3c(cc1OC)N(C)[C@H]1[C@@](O)(C(=O)OC)[C@H](OC(C)=O)[C@]4(CC)C=CCN5CC[C@]31[C@@H]54)C2	A2780 cells	9
CC(=O)O[C@H]1C(=O)[C@@]2(C)[C@H]([C@H](OC(=O)c3ccccc3)[C@]3(O)C[C@H](OC(=O)[C@H](O)[C@@H](NC(=O)c4ccccc4)c4ccccc4)C(C)=C1C3(C)C)[C@]1(OC(C)=O)CO[C@@H]1C[C@@H]2O	A2780 cells	6.5

Read the next record carefully.
Consider CC[C@]1(O)C[C@H]2CN(CCc3c([nH]c4ccccc34)[C@@](C(=O)OC)(c3cc4c(cc3OC)N(C=O)[C@H]3[C@@](O)(C(=O)OC)[C@H](OC(C)=O)[C@]5(CC)C=CCN6CC[C@]43[C@@H]65)C2)C1 [Vincristine, reference compound] . Its measured IC50 is 3
